Source: the supplement of paper PMC11451515

Tested on: SEM cells
Experiment: cell viability relative to DMSO control; higher = less cytotoxic
Conditions: RPMI 5 mM glucose + 10% dialyzed FBS; 48 h; 0.000781 µM
# cell viability annotations
QUANTITY: cell viability (%)

# MOLECULE, UNITS OF MEASURE, RESULT NUMBER
measured = [
    ("CCC[S+]([O-])c1ccc2[nH]c(NC(=O)OC)nc2c1 (stereo not drawn)", "%", 72.7),
    ("CNCC(O)c1ccc(O)cc1 (stereo not drawn)", "%", 75.6),
    ("CNC(=O)c1ccc(N2C(=S)N(c3cnc(C#N)c(C(F)(F)F)c3)C(=O)C23CCC3)cc1F", "%", 82.6),
    ("CCN(CC)CCCCNc1ncc2cc(-c3cc(OC)cc(OC)c3)c(NC(=O)NC(C)(C)C)nc2n1", "%", 112),
    ("S=C(NCc1ccc2c(c1)OCO2)N1CCN(c2ncnc3c2oc2ccccc23)CC1", "%", 104),
    ("CCNC(=O)C[C@H]1/N=C(/C2=CC=C(Cl)C=C2)C3=CC(=CC=C3[N]4C(=NN=C14)C)OC", "%", 122),
    ("Nc1ncnc2c1ncn2[C@@H]1O[C@@H](CO)[C@H](O)[C@@H]1O", "%", 106),
    ("Cc1coc2c1C(=O)C(=O)c1c-2ccc2c(C)cccc12", "%", 112),
    ("CN(C)C1CCN(C(=O)c2ccc(NC(=O)Nc3nc(N4CCOCC4)nc(N4CCOCC4)n3)cc2)CC1", "%", 78.1),
    ("Clc1ccc(-c2nc3sccn3c2/C=N/OCc2ccc(Cl)c(Cl)c2)cc1", "%", 131),
    ("CC(C)OC(=O)/C1=C/N(CC(C)(C)C2=C1[NH]C3=CC=CC=C23)C(=O)C4=CC=C(F)C(=C4)F", "%", 72.9),
    ("C[C@]12CC[C@H]3[C@@H](CC[C@H]4NC(=O)\\C=C/[C@]34C)[C@@H]1CC[C@@H]2C(=O)NC5=CC(=CC=C5C(F)(F)F)C(F)(F)F", "%", 114),
    ("OC(c1cc(C(F)(F)F)nc2c(C(F)(F)F)cccc12)C1CCCCN1 (stereo not drawn)", "%", 117),
    ("NC\\1=N\\C(=O)N(\\C=C1)[C@@H]2O[C@H](CO)[C@@H](O)[C@@H]2O", "%", 16.3),
    ("O=C(Nc1cccc(C(F)(F)F)c1)Nc1cc([S+](=O)([O-])NC2CC2)ccc1-c1ccsc1", "%", 101),
    ("OC[C@H]1O[C@H]([C@H](O)[C@@H]1O)N2\\C=C/C(=O)NC2=O", "%", 101),
    ("C[C@](O)(CS(=O)(=O)c1ccc(F)cc1)C(=O)Nc1ccc(C#N)c(C(F)(F)F)c1", "%", 105),
    ("O=C(O)C1(Cc2cccc(Nc3nccs3)n2)CCC(Oc2cccc(Cl)c2F)CC1 (stereo not drawn)", "%", 81.9),
]

* * *

# cell viability annotations
Tested on: NOMO1
Test: cell viability relative to DMSO control; higher = less cytotoxic
Details: RPMI 5 mM glucose + 10% dialyzed FBS; 48 h; 0.0211 µM
QUANTITY: cell viability (%)

# MOLECULE, MEASURED ON, UNITS OF MEASURE, RESULT NUMBER
rows = [
    ("C[C@@H]1COCCN1c1cc(C2([S@+](C)(=N)[O-])CC2)nc(-c2ccnc3[nH]ccc23)n1", "NOMO1", "%", 119),
    ("CCOC(=O)c1ccc(OC(=O)CCCCCNC(=N)N)cc1", "NOMO1", "%", 134),
    ("C[C@](Cc1c[nH]c2ccccc12)(NC(=O)OC1C2CC3CC(C2)CC1C3)C(=O)NC[C@H](NC(=O)CCC(=O)O)c1ccccc1 (some centres not stated)", "NOMO1", "%", 132),
    ("CC(C)C1NC(=O)C(NC(=O)C2=C3\\N=C\\4/C(=C(C)\\C(=O)\\C(=C4C(=O)NC5C(C)OC(=O)C(C(C)C)N(C)C(=O)CN(C)C(=O)C6CCCN6C(=O)C(NC5=O)C(C)C)N)OC3=C(C)C=C2)C(C)OC(=O)C(C(C)C)N(C)C(=O)CN(C)C(=O)C7CCCN7C1=O (configuration not stated)", "NOMO1", "%", 5.07),
    ("C[C@](O)(CS(=O)(=O)c1ccc(F)cc1)C(=O)Nc1ccc(C#N)c(C(F)(F)F)c1", "NOMO1", "%", 135),
    ("CCC[S+]([O-])c1ccc2[nH]c(NC(=O)OC)nc2c1 (configuration not stated)", "NOMO1", "%", 87.4),
    ("O=C(Nc1cc(Cl)cc2c1[nH]c1cnccc12)c1cccnc1", "NOMO1", "%", 110),
]
